In this section, each of the molecules is paired with its reported GI50.
# Test system: U251 CNS
Where a SMILES comes first, the peptide text is derived from it. [ ]: non-standard residue; d: D form. The star is where a group is joined. ξ: configuration not given here. 4Abz = Nc1ccc(C(=O)O)cc1; ξL = CC(C)CC(N)C(=O)O; NHOH = ON*
REPORTED_ENDPOINT: GI50

1. Nc1ccc(Cl)cc1.Nc1ccc(Cl)cc1.Nc1ccc(Cl)cc1.O=C([O-])C(=O)[O-].O=C([O-])C(=O)[O-].[H+].[Ru+5] :: 938 nM
2. COc1cc(C2C3=C(COC3=O)N(CCO)c3cc4c(cc32)OCCO4)cc(OC)c1O (centres undefined) :: 2000 nM
3. NS(=O)(=O)OC[C@H]1O[C@@H](n2cnc3c(N[C@H]4CCc5ccccc54)ncnc32)[C@H](O)[C@@H]1O :: 35.3 nM
4. CC(C)CC(NC(=O)[C@@H]1CCCN1C(=O)CNC(=O)c1ccc(N)cc1)C(=O)N[C@H](C)C(=O)NO (some centres undefined) (H-[4Abz]GP[ξL][dA]-{NHOH}) :: > 100000 nM
